B1: RHOBTB1 (parent)
chain: TFGDHHKDRRFAYGRSDVVVLCFS

variants of: B1; assay: protein stability index of a GFP-peptide fusion (GPS, HEK-293T) (PSI 1-6); higher = more stable; conditions: c terminus: a fixed tail appended;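 note: lentivirally expressed fusions sorted by FACS into six bins by GFP to DsRed ratio, PSI derived from sequencing read proportions per bin multiplied by bin number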
Measured Quantity: protein stability index
Answers are plain numbers.

Consider the following items and state reported protein stability index for each.
1. V20T
2. D17R
3. V20G
4. V20M
5. G14D
6. F11L

[out]
1. 1.68
2. 1.79
3. 2.05
4. 1.44
5. 2.49
6. 1.98
